measurement.notes: Toxicity in Mus musculus ddY (mouse) assessed as mortality at 650 mg/kg, ip after 1 day
Format: organism-based
Parameters: dose 650 mg/kg, route intraperitoneal
condition.context: in vivo
quantity.kind: mortality at 24 h (%)
One number for each entry, in %.

Entry under review: O=C(O)CN1C(=O)CSC1=S . Reported mortality at 24 h?
20

* * *

measurement.notes: Toxicity in Mus musculus ddY (mouse) assessed as mortality at 500 mg/kg, ip after 7 days
Format: organism-based
Parameters: dose 500 mg/kg, route intraperitoneal
condition.context: in vivo
quantity.kind: mortality at 168 h (%)
Give bare numbers, in %.

Reported mortality at 168 h for O=C(O)CN1C(=O)CSC1=S [RHODANINE-3-ACETIC ACID] : what is it?
40
